# systemUnderTest: Histone deacetylase (Plasmodium falciparum (isolate 3D7), UniProt Q7K6A1)
# Sequence (Q7K6A1 whole entry): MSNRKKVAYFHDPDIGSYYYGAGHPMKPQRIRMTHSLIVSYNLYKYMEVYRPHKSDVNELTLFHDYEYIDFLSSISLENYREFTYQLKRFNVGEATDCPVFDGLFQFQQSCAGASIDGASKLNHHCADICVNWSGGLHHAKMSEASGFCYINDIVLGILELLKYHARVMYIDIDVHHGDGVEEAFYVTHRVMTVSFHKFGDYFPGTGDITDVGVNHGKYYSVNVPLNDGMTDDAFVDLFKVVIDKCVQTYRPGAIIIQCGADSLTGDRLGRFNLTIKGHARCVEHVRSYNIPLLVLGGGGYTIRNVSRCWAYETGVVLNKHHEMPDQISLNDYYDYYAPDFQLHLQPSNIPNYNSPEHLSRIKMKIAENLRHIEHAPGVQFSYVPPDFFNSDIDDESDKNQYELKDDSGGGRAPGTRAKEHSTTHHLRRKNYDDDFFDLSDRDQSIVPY
# experimentalProtocol: pfHDAC-1 Enzyme Assay
# conditionNotes: pH 7.5; 23 °C
pIC50: −log10 of the molar value.
readout: pIC50

Worked examples follow.
- molecule: "O=C(CCCCCC(=O)NN=Cc1ccccc1Br)NO [benzylidenehydrazine derivative, 16]"
  pIC50: 7.43
- molecule: "COc1ccc(Br)c(C=NNC(=O)CCCCCC(=O)NO)c1 [benzylidenehydrazine derivative, 12]"
  pIC50: 7.66

(I) O=C(CCCCCC(=O)NN=Cc1cc2c(cc1Br)OCO2)NO [benzylidenehydrazine derivative, 10]
(II) COc1cc(C=NNC(=O)CCCCCC(=O)NO)c(Br)cc1O [benzylidenehydrazine derivative, 17]
I'm curious, which of these has a smaller pIC50 number: I or II ? Label of pick, please.
II

###

# systemUnderTest: Histone deacetylase (Plasmodium falciparum (isolate 3D7))
# experimentalProtocol: pfHDAC-1 Enzyme Assay
# conditionNotes: pH 7.5; 23 °C
pIC50: −log10 of the molar value.
readout: pIC50

- compound: "O=C(CCCCC(=O)NN=Cc1cc(O)ccc1Br)NO [benzylidenehydrazine derivative, 22]"
  pIC50: 7.05
- compound: "O=C(CCCCC(=O)NN=Cc1ccc(O)cc1Br)NO [benzylidenehydrazine derivative, 21]"
  pIC50: 6.97
- compound: "O=C(CCCCCC(=O)NN=Cc1c(O)ccc2ccccc12)NO [benzylidenehydrazine derivative, 14]"
  pIC50: 7.39
- compound: "O=C(CCCCCCC(=O)NN=Cc1c(O)cc(O)cc1O)NO [benzylidenehydrazine derivative, 11]"
  pIC50: 7.37

(A) COc1cc(C=NNC(=O)CCCCC(=O)NO)c(Br)cc1O [benzylidenehydrazine derivative, 23]
(B) O=C(CCCCCC(=O)NN=Cc1cccnc1Br)NO [benzylidenehydrazine derivative, 20]
(C) O=C(CCCCCCC(=O)NN=Cc1cc(O)ccc1O)NO [benzylidenehydrazine derivative, 9]
Descending sort on pIC50 required. As an answer, provide the labels arranged in the order called for.
B, A, C
(B: 7.44, A: 7.23, C: 6.96)

(A) O=C(CCCCC(=O)NN=Cc1ccc(B(O)O)cc1)NO [benzylidenehydrazine derivative, 24]
(B) O=C(CCCCCC(=O)NN=Cc1ccccc1Cl)NO [benzylidenehydrazine derivative, 18]
Sort A and B by pIC50 descending and give the first. Label of pick, please.
A

###

# systemUnderTest: Histone deacetylase (Plasmodium falciparum (isolate 3D7), UniProt Q7K6A1)
# experimentalProtocol: pfHDAC-1 Enzyme Assay
# conditionNotes: pH 7.5; 23 °C
readout: IC50 (nM)

- compound: "O=C(CCCCCC(=O)NN=Cc1cc(O)ccc1Br)NO [benzylidenehydrazine derivative, 15]"
  readoutNumber: 49

(A) CN(C)c1ccc(C=NNC(=O)CCCCCC(=O)NO)c(O)c1 [benzylidenehydrazine derivative, 13]
(B) O=C(CCCCCC(=O)NN=Cc1cccc(O)c1)NO [benzylidenehydrazine derivative, 8]
(C) O=C(CCCCCC(=O)NN=Cc1ccc(-n2ccnc2)cc1)NO [benzylidenehydrazine derivative, 19]
Could you please order the items by IC50, going from the lowest number to the highest? As an answer, provide the labels arranged in the order called for.
C, A, B

Where these numbers come from: BindingDB's records for doi:10.1021/jm801654y
